Values compiled from PubChem BioAssay AID1851.

Molecular target: Cytochrome P450 2D6 (Homo sapiens) (UniProt P10635)
Sequence (P10635 whole entry, looked up): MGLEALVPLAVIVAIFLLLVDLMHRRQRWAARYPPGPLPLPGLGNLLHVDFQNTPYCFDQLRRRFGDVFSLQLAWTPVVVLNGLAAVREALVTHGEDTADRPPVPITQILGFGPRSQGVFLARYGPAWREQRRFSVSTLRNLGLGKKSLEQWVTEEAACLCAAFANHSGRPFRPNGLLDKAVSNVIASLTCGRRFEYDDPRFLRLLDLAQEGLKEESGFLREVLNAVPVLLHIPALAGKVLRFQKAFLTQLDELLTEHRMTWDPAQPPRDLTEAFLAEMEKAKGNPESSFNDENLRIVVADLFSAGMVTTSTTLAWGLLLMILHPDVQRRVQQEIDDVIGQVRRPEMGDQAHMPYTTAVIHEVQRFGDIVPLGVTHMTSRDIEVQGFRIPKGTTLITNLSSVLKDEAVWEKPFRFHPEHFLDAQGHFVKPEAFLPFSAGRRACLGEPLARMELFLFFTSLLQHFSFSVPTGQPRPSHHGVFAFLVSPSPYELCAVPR
Experiment: Cytochrome panel assay with activity outcomes
Settings: recombinant CYP, pro-luciferin dealkylation, luminescence, p450-cyp2d6; series mostly up to 57.1 µM
About 2,600 (16%) of roughly 16,000 compounds were called active. Inconclusive results (about 20%) are left out. The call rests on the fitted dose curve; in most records, active means well fitted curve in the direction sought with a large enough effect; inconclusive means small, poorly fitted or top-dose-only effect, or effect the other way; inactive means no such curve, though single readings can be large or run the other way. The list is a sample of the results.
One label from this list, please: true for active, false for inactive

Worked examples follow.
compound	test target	class assignment
O=c1oc(-c2ccco2)nc2c1cnn2-c1ccccc1	Cytochrome P450 2D6 (Homo sapiens) (UniProt P10635)	false
NC(N)=NCc1cccc(I)c1	Cytochrome P450 2D6 (Homo sapiens) (UniProt P10635)	true
O=C(O)c1cccnc1	Cytochrome P450 2D6 (Homo sapiens) (UniProt P10635)	false
Cc1ccc(/C=N/NC(=O)CSc2nc3ccccc3n2C)s1	Cytochrome P450 2D6 (Homo sapiens) (UniProt P10635)	true
Cc1c(Cl)cccc1NC(=O)CC1NCCNC1=O (stereo not given)	Cytochrome P450 2D6 (Homo sapiens) (UniProt P10635)	false

Hey, what did the test say about CN1CCN(c2ccc([N+](=O)[O-])cc2C(=O)N2CCOCC2)CC1 ?
false

====

Target: Cytochrome P450 2D6 (Homo sapiens)
Assay: Cytochrome panel assay with activity outcomes
Conditions: recombinant CYP, pro-luciferin dealkylation, luminescence, p450-cyp2d6; series mostly up to 57.1 µM
Screen size: about 16,000 compounds; about 2,600 (16%) were called active. Inconclusive results (about 20%) are left out. Not all results are given here.
reported property: AC50

compound	AC50
CC(=O)N1CCN(C(=O)CC2OC(=O)c3ccccc32)CC1 (configuration not stated)	inactive
COc1c(O[C@H]2O[C@@H](CO)[C@@H](O)[C@@H](O)[C@@H]2O)cc2c(c1OC)-c1ccc(SC)c(=O)cc1[C@H](NC(C)=O)CC2	inactive
Cc1ccccc1-c1ccc2ncnc(-n3ccnc3)c2c1	25.1 µM (active)
CCN1CCN(CCC(=O)Nc2cccc(OC)c2)CC1	inactive
CC(C)(C)c1ccc(O)c(CN(Cc2cc(C(C)(C)C)ccc2O)C2CCCCC2)c1	0.501 µM (active)

Quick one: give me AC50 for each item below, same order please.
1. CC(C)[C@@H]1NC(=O)[C@H](CCCCN)NC(=O)[C@H](Cc2c[nH]c3ccccc23)NC(=O)[C@H](Cc2ccc(O)cc2)NC(=O)[C@H](C)N(C)C(=O)[C@H](Cc2ccccc2)NC1=O
2. COCCNC(=O)c1ccc2c(c1)ncn2-c1ccc(F)c(F)c1
3. Cc1ccccc1C(=O)NC(=S)NCC(=O)c1ccccc1
4. CNc1ccnc(-c2ccccc2C)n1
5. CS(=O)(=O)N(Cc1cc2ccccc2[nH]c1=O)C1CCCCC1
6. COc1cc2nc(N3CCN(C(=O)c4ccco4)CC3)nc(N)c2cc1OC

["inactive", "inactive", "inactive", "inactive", "inactive", "inactive"]

Quick one: give me AC50 for each item below, same order please.
1. COc1ccc(C)cc1NC(=O)CN1CCN(S(=O)(=O)c2ccc(F)cc2)CC1
2. CC(C)C(NC(=O)OCc1ccccc1)C(=O)O (configuration not stated)
3. Cc1noc(C)c1C(=O)N1CCC[C@@]2(CCN(C(=O)Nc3cccc(F)c3)C2)C1
4. CN(C/C=C\c1ccccc1)Cc1cccc2ccccc12
5. CCCn1nc2cc(C(=O)NCc3ccc(C)cc3)ccc2c1OC
6. CN1CCC(=C2c3ccccc3CCc3sccc32)CC1

inactive
inactive
inactive
0.251 µM (active)
inactive
1.26 µM (active)

Quick one: give me AC50 for each item below, same order please.
1. COc1ccccc1CNc1ncncc1-c1ccccc1Cl
2. CN(C)S(=O)(=O)Oc1ccccc1C(=O)Nc1cccc(C(F)(F)F)c1

1: 2 µM (active); 2: inactive

Quick one: give me AC50 for each item below, same order please.
1. Nc1nc2n[nH]nc2c(=O)[nH]1
2. CC12CCC(C(=O)Nc3ccccc3Br)(C/C1=N\O)C2(C)C (configuration not stated)

1. inactive
2. inactive

Just so you know, measured AC50 for COCCn1c(=O)c(C)nc2cnc(N3CCNCC3)nc21 came out at inactive

====

Target: Cytochrome P450 2D6 (Homo sapiens) (UniProt P10635)
Assay: Cytochrome panel assay with activity outcomes
Details: recombinant CYP, pro-luciferin dealkylation, luminescence, p450-cyp2d6; series mostly up to 57.1 µM
Out of some 16,000 compounds screened, about 2,600 (16%) were called active. Roughly 20% stayed inconclusive and do not appear here. Calls follow the shape of the dose curve; as a rule, active = well fitted curve in the direction sought with a large enough effect; inconclusive = small, poorly fitted or top-dose-only effect, or effect the other way; inactive = no such curve, though single readings can be large or run the other way. These entries were drawn from the full list.
One label from this list, please: true (1) (active), false (0) (inactive)

Worked examples follow.
compound	test target	class assignment
CC(C)(C)NS(=O)(=O)c1ccc(NS(=O)(=O)c2ccc(F)cc2)cc1	Cytochrome P450 2D6 (Homo sapiens) (UniProt P10635)	false (0)
CC(C)CC(=O)N1CCN(Cc2cccc(F)c2)CC1	Cytochrome P450 2D6 (Homo sapiens) (UniProt P10635)	true (1)

Now turn to the next compound.
Hey, what did the test say about CCOc1ccc(NC(=S)N(Cc2ccc(N(C)C)cc2)Cc2ccco2)cc1 ?
true (1)

====

Target: Cytochrome P450 2D6 (Homo sapiens) (UniProt P10635)
Test: Cytochrome panel assay with activity outcomes
Conditions: recombinant CYP, pro-luciferin dealkylation, luminescence, p450-cyp2d6; series mostly up to 57.1 µM
Out of some 16,000 compounds screened, about 2,600 (16%) were called active. Not shown: some 20% with an inconclusive outcome. The list is a sample of the results.
reported property: AC50

Reference set (6 entries):
molecule	AC50
O=[N+]([O-])c1ccccc1/C=N/n1c(COc2ccccc2)n[nH]c1=S	inactive
COc1ccc2oc(-c3ccc(C)c(NC(=O)CSc4ccc(Cl)cc4)c3)nc2c1	2.51 µM (active)
Cc1ccc(-c2nc3ccccc3o2)cc1NC(=O)Cc1cccs1	inactive
O=C(Nc1ccc(Cl)cc1)OCCn1nnnc1C(c1ccccc1Cl)N1CCOCC1 (centres undefined)	15.8 µM (active)
COC(=O)N1CCC[C@@]2(CCN(C(=O)Nc3cccc(F)c3)C2)C1	10 µM (active)
CCCn1nc(Oc2nc(NCC)nc(NCC)n2)ccc1=O	inactive

Quick one: give me AC50 for each item below, same order please.
1. CCOC(=O)c1sc(C)c(C(=O)NCC(C)(C)CN(C)C)c1N
2. CC(=O)N1CCC2(CCCN(C(=O)Nc3cccc(F)c3)C2)CC1
3. COc1ccc(-c2nc3ccccc3c(=O)n2N)cc1
4. CSc1nsc(/C=C/Nc2ccc(Cl)cc2)c1C#N
5. Cc1cc(C)nc(NN2C(=O)/C(=C/c3ccccc3)SC2=S)n1
6. NC(=O)c1ccc(NC(=O)C2CCCO2)cc1 (centres undefined)
7. Cc1c(Nc2ncccc2C(=O)O)cccc1C(F)(F)F
8. CC(=O)c1cnc2cc(C)nn2c1C

1: 1.78 µM (active); 2: inactive; 3: inactive; 4: inactive; 5: inactive; 6: inactive; 7: inactive; 8: inactive

====

Molecular target: Cytochrome P450 2D6 (Homo sapiens) (UniProt P10635)
Assay: Cytochrome panel assay with activity outcomes
Conditions: recombinant CYP, pro-luciferin dealkylation, luminescence, p450-cyp2d6; series mostly up to 57.1 µM
Hit rate of the full screen: of about 16,000 compounds, about 2,600 (16%) were called active. Another 20% or so got no clear call; they are omitted. The call rests on the fitted dose curve; in most records, active means well fitted curve in the direction sought with a large enough effect; inconclusive means small, poorly fitted or top-dose-only effect, or effect the other way; inactive means no such curve, though single readings can be large or run the other way. The list is a sample of the results.
One label from this list, please: y (active), n (inactive)

compound	class assignment
CC[C@H](C(=O)c1cccs1)C(O)(C(F)(F)F)C(F)(F)F	y
CCOC(=O)c1cc(-c2ccccc2)sc1NC(=S)Nc1cc(C)ccn1	n
CN(CC(=O)N1CCN(c2ccccc2)CC1)S(=O)(=O)c1cnc[nH]1	y

Hey, what did the test say about CCN(CC)C(=S)SSC(=S)N(CC)CC ?
n

Hey, what did the test say about C1CNCCOCCNCCN1 ?
n

Hey, what did the test say about CCC/C=C(\CCC)C(NC(=O)c1cccs1)c1ccc(C(F)(F)F)cc1 (stereo not given) ?
n

Hey, what did the test say about CO/N=C(\C)CCN1CCCc2nc(C)c(C)cc21 ?
y

Hey, what did the test say about O=C(Cn1nnc2ccccc21)N/N=C\C=C\c1ccccc1 ?
n

Hey, what did the test say about NC(=O)c1ncn([C@@H]2O[C@@H](CO)[C@@H](O)[C@H]2O)c1O ?
n

Hey, what did the test say about CC(=O)c1cc(CC=C(C)C)c(O)cc1O ?
y

Hey, what did the test say about COc1ccc(C2CC(=O)CC(=O)C2n2cncn2)cc1 (stereo not given) ?
n

====

Molecular target: Cytochrome P450 2D6 (Homo sapiens)
Test: Cytochrome panel assay with activity outcomes
Conditions: recombinant CYP, pro-luciferin dealkylation, luminescence, p450-cyp2d6; series mostly up to 57.1 µM
Screen size: about 16,000 compounds; about 2,600 (16%) were called active. Inconclusive results (about 20%) are left out. These entries were drawn from the full list.
reported property: AC50

Reference set (4 entries):
substance smiles	AC50
CS(=O)(=O)N1CCC2(CC1)CN(c1ccncc1)C2	inactive
CS(=O)(=O)N1CCC2(CCN(C(c3ccccc3)c3ccccc3)CC2)CC1	3160 nM (active)
Cc1ccc(C(=O)N/N=C/c2nc3ccccc3n2C)cc1	inactive
C[C@@H](CCCCC(=O)Nc1ccc(C(F)(F)F)cc1)NCCc1cnc[nH]1	5010 nM (active)

Quick one: give me AC50 for each item below, same order please.
1. Cc1c(Cl)cccc1Nc1ccccc1C(=O)O
2. Cc1cnc(CNc2ncncc2-c2ccccc2C#N)cn1
3. O=C(c1ccccc1-c1nc(-c2ccccc2)no1)N1CCOCC1
4. C/C(=N\NC(=O)c1[nH]c2c([N+](=O)[O-])cc(C)cc2c1-c1ccccc1)c1cccnc1
5. CCCOc1ccc(C(=O)NC(=S)Nc2nc3ccc(C)cc3s2)cc1
6. COc1cccc(NC(=S)NN2CCN(C)CC2)c1
7. CCc1nnc(NC(=O)CSc2ncnc3c2cnn3-c2ccc(OC)cc2)s1
8. Cc1c(NC(=O)/C=C/c2cn(-c3ccccc3)nc2-c2ccc(F)cc2)c(=O)n(-c2ccccc2)n1C

inactive
inactive
inactive
inactive
inactive
inactive
inactive
inactive
